system: HCT116; experiment: efficacy (fitted maximal change in viability relative to DMSO control); higher = less cytotoxic (negative = loss of viability); conditions: 48 h;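 further: Luminescence-based viability readout, five doses per compound, normalized against on-plate DMSO and empty-well controls, followed by dose-response curve fitting for every drug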
If the reported efficacy equals or exceeds -90%, assign T. If not, assign F.

Task: Entry C[C@@H]1C[C@@H]([C@H](O)CC2CC(=O)NC(=O)C2)C(=O)[C@@H](C)C1 [Cycloheximide] : is its efficacy no less than -90%?
Result: T

Task: Assess whether reported efficacy for NC/1=N/C(=O)N/C=C1F sits at -90% or higher.
Result: T

Task: Does CC(C)CC(=O)N[C@H](C(=O)N[C@H](C(=O)N[C@@H](CC(C)C)[C@@H](O)CC(=O)N[C@@H](C)C(=O)N[C@@H](CC(C)C)[C@@H](O)CC(=O)O)C(C)C)C(C)C have a reported efficacy of at least -90%?
Result: T

Task: Is the recorded value of efficacy equal to or greater than -90% for this compound? CCN(CC)CCCCNc1ncc2cc(-c3cc(OC)cc(OC)c3)c(NC(=O)NC(C)(C)C)nc2n1
Result: F

Task: Quick check: does COc1cccc2cc(-c3nc([C@H]4CC[C@H](C(=O)O)CC4)n4ncnc(N)c34)[nH]c12 have efficacy greater than or equal to -90%?
Result: F

Task: # bool: efficacy of Cc1cc(Nc2nc(N[C@@H](C)c3ccc(F)cc3)c(C#N)cc2F)n[nH]1 >= -90%
Result: F

Task: Is it the case that CO[C@@]12[C@H](COC(N)=O)C/3=C(N1C[C@@H]4N[C@H]24)/C(=O)/C(=C(N)\C3=O)C has efficacy reaching or exceeding -90%?
Result: T

Task: Check if efficacy >= -90% (inclusive). Item: N[C@@H]1CONC1=O
Result: T

Task: Please check the record CO[C@H]1C[C@@H]2CC[C@@H](C)[C@@](O)(O2)C(=O)C(=O)N2CCCC[C@H]2C(=O)O[C@H]([C@@H](C)C[C@@H]2CC[C@@H](O)[C@H](OC)C2)CC(=O)[C@H](C)/C=C(\C)[C@@H](O)[C@@H](OC)C(=O)[C@H](C)C[C@H](C)/C=C/C=C/C=C/1C and state if its efficacy is at or above -90%.
Result: T

Task: Dear colleague, could you confirm whether COc1cc(C(=O)N2CCC(N3CCN(C)CC3)CC2)ccc1Nc1ncc2c(n1)N(C)c1ccccc1C(=O)N2C has efficacy at or above -90%?
Result: F

Task: Check if efficacy >= -90% (inclusive). Item: CC(C)NC(=O)COc1cccc(-c2nc(Nc3ccc4[nH]ncc4c3)c3ccccc3n2)c1
Result: T

Task: Check if efficacy >= -90% (inclusive). Item: C[N]1C=C(C2=CC=CC=C12)\C3=C(\C(=O)NC3=O)C4=C[N](C5CCN(CC5)CC6=NC=CC=C6)C7=C4C=CC=C7
Result: T

Task: // inclusive: efficacy at least -90%? input: COc1cc2c(cc1O)CCN[C@]21CS[C@@H]2c3c(OC(C)=O)c(C)c4c(c3[C@H](COC1=O)N1[C@@H]2[C@H]2c3c(cc(C)c(OC)c3O)C[C@@H]([C@@H]1O)N2C)OCO4
Result: T

Task: Can NC(CSC(c1ccccc1)(c1ccccc1)c1ccccc1)C(=O)O (stereo in doubt) be said to have efficacy at or above -90%?
Result: T

Task: Hi team, for NC(=S)N/N=C/c1ncccc1N , is the recorded efficacy at or above -90%?
Result: T

Task: Please indicate if the recorded efficacy for CC1(C)CCC2(CC1)N[C@@H](C(=O)N[C@@H]1CC[C@@H](C(N)=O)OC1)[C@H](c1ccnc(Cl)c1F)[C@]21C(=O)Nc2cc(Cl)ccc21 meets or exceeds -90%.
Result: F

Task: Evaluate CCCCCCOC(=O)/N=C(/N)c1ccc(NCc2nc3cc(C(=O)N(CCC(=O)OCC)c4ccccn4)ccc3n2C)cc1 : efficacy at minimum -90%?
Result: T

Task: Does O=C1CCc2ccc(OCCCCN3CCN(c4cccc(Cl)c4Cl)CC3)cc2N1 have a reported efficacy of at least -90%?
Result: F

Task: Does CN1CCN(c2ccc(C(=O)Nc3n[nH]c4ccc(Cc5cc(F)cc(F)c5)cc34)c(NC3CCOCC3)c2)CC1 have a reported efficacy of at least -90%?
Result: F
